- System: 171881-019-R-J1-PDC multicell spheroid viability
- experiment-summary: Anticancer human tumor 171881-019-R-J1-PDC patient-derived invasive breast carcinoma cell line growth inhibition [IpAb]
- condition-details: second compound 0.316 µM; first compound 0.1 µM; stronger effect = lower value
Listed here: items and their measured viability, T/C.
Response body: numeric value in %, unit text excluded.

As a guide, the following entries are already answered.
Cn1ncc(Cl)c1-c1cc(C(=O)NC(CN)Cc2cccc(F)c2)sc1Cl (stereo unspecified) + CC(C)NCC(C(=O)N1CCN(c2ncnc3c2C(C)CC3O)CC1)c1ccc(Cl)cc1	45.3
Cn1nccc1Nc1nccc(-c2ccn(C(CO)c3ccc(Cl)c(F)c3)c(=O)c2)n1 (stereo unspecified) + CCN1CCN(Cc2ccc(Nc3ncc(F)c(-c4cc(F)c5nc(C)n(C(C)C)c5c4)n3)nc2)CC1	122
Cn1nccc1Nc1nccc(-c2ccn(C(CO)c3ccc(Cl)c(F)c3)c(=O)c2)n1 (stereo unspecified) + CC(C)NCC(C(=O)N1CCN(c2ncnc3c2C(C)CC3O)CC1)c1ccc(Cl)cc1	38.5
CC(C)n1nc(-c2ccc3oc(N)nc3c2)c2c(N)ncnc21 + CC(C)NCC(C(=O)N1CCN(c2ncnc3c2C(C)CC3O)CC1)c1ccc(Cl)cc1	1.7
COc1c(OCCCN2CCOCC2)ccc2c3n(c(=NC(=O)c4cnc(N)nc4)nc12)CCN3 + CCN1CCN(Cc2ccc(Nc3ncc(F)c(-c4cc(F)c5nc(C)n(C(C)C)c5c4)n3)nc2)CC1	7.2

Read the next record carefully.
Task: What is its viability, T/C for 171881-019-R-J1-PDC multicell spheroid viability? Entry: CC1(C)CCC(CN2CCN(c3ccc(C(=O)NS(=O)(=O)c4ccc(NCC5CCOCC5)c([N+](=O)[O-])c4)c(Oc4cnc5[nH]ccc5c4)c3)CC2)=C(c2ccc(Cl)cc2)C1 + CCN1CCN(Cc2ccc(Nc3ncc(F)c(-c4cc(F)c5nc(C)n(C(C)C)c5c4)n3)nc2)CC1
Output: 117

====

- Test system: 171881-019-R-J1-PDC multicell spheroid viability
- experiment-summary: Anticancer human tumor 171881-019-R-J1-PDC cell line growth inhibition [IpAb];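 also: spheroids exposed to the agents for seven days before readout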
- condition-details: curve of first compound; second compound 0.01 µM
test-readout: IC50 (nM)
Response body: numeric value in nM, unit text excluded.

Cn1cnc2c(F)c(Nc3ccc(Br)cc3Cl)c(C(=O)NOCCO)cc21 + CCN1CCN(Cc2ccc(Nc3ncc(F)c(-c4cc(F)c5nc(C)n(C(C)C)c5c4)n3)nc2)CC1	1250

Read the next record carefully.
Task: GET /values?readout=IC50&item= C=CCn1c(=O)c2cnc(Nc3ccc(N4CCN(C)CC4)cc3)nc2n1-c1cccc(C(C)(C)O)n1 + CCN1CCN(Cc2ccc(Nc3ncc(F)c(-c4cc(F)c5nc(C)n(C(C)C)c5c4)n3)nc2)CC1
Output: 864

====

- System: 171881-019-R-J1-PDC multicell spheroid viability
- experiment-summary: Anticancer human tumor 171881-019-R-J1-PDC cell line growth inhibition [IpAb];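 also: spheroids exposed to the agents for seven days before readout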
- condition-details: second compound 0.01 µM; first compound 1 µM; stronger effect = lower value
Listed here: items and their measured viability, T/C.
Response body: numeric value in %, unit text excluded.

As a guide, the following entries are already answered.
CC1(C)CCC(CN2CCN(c3ccc(C(=O)NS(=O)(=O)c4ccc(NCC5CCOCC5)c([N+](=O)[O-])c4)c(Oc4cnc5[nH]ccc5c4)c3)CC2)=C(c2ccc(Cl)cc2)C1 + CCN1CCN(Cc2ccc(Nc3ncc(F)c(-c4cc(F)c5nc(C)n(C(C)C)c5c4)n3)nc2)CC1	72.4
CCCS(=O)(=O)Nc1ccc(F)c(C(=O)c2c[nH]c3ncc(-c4ccc(Cl)cc4)cc23)c1F + CCN1CCN(Cc2ccc(Nc3ncc(F)c(-c4cc(F)c5nc(C)n(C(C)C)c5c4)n3)nc2)CC1	87
Cn1nccc1Nc1nccc(-c2ccn(C(CO)c3ccc(Cl)c(F)c3)c(=O)c2)n1 (stereo not drawn) + CCN1CCN(Cc2ccc(Nc3ncc(F)c(-c4cc(F)c5nc(C)n(C(C)C)c5c4)n3)nc2)CC1	41.6
C=CCn1c(=O)c2cnc(Nc3ccc(N4CCN(C)CC4)cc3)nc2n1-c1cccc(C(C)(C)O)n1 + CCN1CCN(Cc2ccc(Nc3ncc(F)c(-c4cc(F)c5nc(C)n(C(C)C)c5c4)n3)nc2)CC1	43.2
Cn1ncc(Cl)c1-c1cc(C(=O)NC(CN)Cc2cccc(F)c2)sc1Cl (stereo not drawn) + CCN1CCN(Cc2ccc(Nc3ncc(F)c(-c4cc(F)c5nc(C)n(C(C)C)c5c4)n3)nc2)CC1	16.8
Cc1nc(NC(=O)N2CCCC2C(N)=O)sc1-c1ccnc(C(C)(C)C(F)(F)F)c1 (stereo not drawn) + CCN1CCN(Cc2ccc(Nc3ncc(F)c(-c4cc(F)c5nc(C)n(C(C)C)c5c4)n3)nc2)CC1	44.7
C=CC(=O)N1CCN(c2nc(=O)n(-c3c(C)ccnc3C(C)C)c3nc(-c4c(O)cccc4F)c(F)cc23)C(C)C1 (stereo not drawn) + CCN1CCN(Cc2ccc(Nc3ncc(F)c(-c4cc(F)c5nc(C)n(C(C)C)c5c4)n3)nc2)CC1	94.8

Read the next record carefully.
Task: GET /values?readout=viability, T/C&item= COc1c(OCCCN2CCOCC2)ccc2c3n(c(=NC(=O)c4cnc(N)nc4)nc12)CCN3 + CCN1CCN(Cc2ccc(Nc3ncc(F)c(-c4cc(F)c5nc(C)n(C(C)C)c5c4)n3)nc2)CC1
Output: 1.29

The origin of these recorded values is PubChem BioAssay AID2060342.
